tested on: OVCAR-4; test: NCI tumour cell line growth inhibition, 48 h
Active and inactive are the calls of the source. Cut-off read from the data, not from the text of the source: active = GI50 up to about 1.1 µM and inactive = higher.
Labels: label 1 = active, label 0 = inactive

INSERT INTO results (compound, target_of_assay, assigned_label) VALUES
  ('NC(CCC(=O)O)C(=O)N1CCN(c2nc(N3CCCC3)c3nc(Cl)c(NCc4ccccc4)nc3n2)CC1 (centres undefined)', 'OVCAR-4', 'label 0'),
  ('CN(C)CCC(=O)N1C/C(=C\c2ccc(Cl)c(Cl)c2)C(=O)/C(=C/c2ccc(Cl)c(Cl)c2)C1', 'OVCAR-4', 'label 1'),
  ('CCOC(=O)/C(=C\c1c(C)[nH]c2ccccc12)P(=O)(OCC)OCC', 'OVCAR-4', 'label 0'),
  ('O=C(N=C1N(c2ccccc2)C(=O)C(=O)N1c1ccccc1)c1ccccc1', 'OVCAR-4', 'label 0'),
  ('CCN(CC)CCCC(C)NC(=O)c1ccc2c(c1)C(=O)c1ccccc1C2=O (centres undefined)', 'OVCAR-4', 'label 0'),
  ('O=[N+]([O-])c1ccc([I+]c2ccccc2)cc1', 'OVCAR-4', 'label 0'),
  ('COc1cc(/C=N\N(C)C)cc(/C=N/N(C)C)c1O', 'OVCAR-4', 'label 0'),
  ('O=C1c2c(F)c(F)c(F)c(F)c2SC2=Nc3cccc4cccc(c34)N12', 'OVCAR-4', 'label 0'),
  ('Cn1c2c(c3ccccc31)CCN1C(=O)C34CCCC3CC21S4 (centres undefined)', 'OVCAR-4', 'label 0');
